- target: EGFR (human)
- experimental context: a431
Would you kindly list pIC50 for each of these compounds?
Answers are plain numbers, as −log10 of the molar value.

Some entries whose results are on file:
COc1cc2ncnc(N3CCN(c4ccc([N+](=O)[O-])cc4)CC3)c2cc1OC :: 4.39
COc1cccc(N2CCN(c3ncnc4cc(OC)c(OC)cc34)CC2)c1 :: 4.41
COc1cccc(Nc2ncnc3cc(OC)c(OC)cc23)c1 :: 4.93

Moving on to the next compound.
Name the reported pIC50 value associated with the compound COc1cc2nc3nccn3c(Nc3cccc(Br)c3)c2cc1OC 5.17

----------
- target: EGFR (human)
- experimental context: a431
Would you kindly list IC50 for each of these molecules?
One number for each entry, in µM.

Batch request: IC50 per item, same order as input.
1. COc1ccc(CNc2ncnc3cc(OC)c(OC)cc23)cc1OC
2. COc1cc2ncnc(N3CCN(c4cccc(C(F)(F)F)c4)CC3)c2cc1OC
3. COc1cc2ncnc(N3CCN(c4ccc(Cl)cc4)CC3)c2cc1OC
4. COc1cc2ncnc(Nc3ccccc3[N+](=O)[O-])c2cc1OC
5. COc1cc2ncnc(N3CCN(c4ccccn4)CC3)c2cc1OC
6. COc1ccc(CCCNc2ncnc3cc(OC)c(OC)cc23)cc1OC
7. COc1cc2ncnc(N3CCN(c4ccccc4OC)CC3)c2cc1OC

1. 27.1
2. 4.7
3. 24.7
4. 4.4
5. 63.5
6. 22.8
7. 1.4
